B1: tRNA (parent)
chain: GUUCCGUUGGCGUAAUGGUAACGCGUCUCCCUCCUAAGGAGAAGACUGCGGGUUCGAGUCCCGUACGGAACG

# Variants of: B1
# Assay Overview: yeast fitness relative to wild type (ratio to wild type); higher = fitter; tRNA-Arg(CCU), competitive growth, 37 C, YPD
Variants at the floor of the assay were thinned out.
Listed below: yeast fitness values for each entry.
Give only the figure.

Sequence Record	Endpoint Result
GUUCCGUUGGUGUAAUGGUAACGCGUCUCCCUCCUAAGGAGUAGACUGCGGGUUCGAGUCCCGUACGGAACG [C11U A42U]	0.897
GUUCCGUUGGCGUAAUGGUAACGCGUCUCCCUCCUAAGGAGAAGACUGCGGGUUGGAGUCCCGUGGGGAACG [C55G A65G C66G]	0.567
GUUCCGUUGGCGUAAUGGUAACGCGUCUCCCUCCUAAGGAGAAGACUGGGGGUUCCAGUCCCGUACGGAACG [C49G G56C]	0.641
GUUCCGAUGGCGUAAUGGUAACGCGUCUCCCUCCUAAGGAGAAGACUGCGGGUACGAGUCCCGUACGGAACG [U7A U54A]	0.506

[in] GET /values?readout=yeast fitness&item= GUUCCGUUAGCGUAAUGGUGUCGCGUCUCCCUCCUAAGGAGAAGACUGCGGGUUCGAGUCCCGUACGGAACG [G9A A20G A21U]
[out] 0.57

[in] GET /values?readout=yeast fitness&item= GUUCCGUUGGCGUGAUGGUCACGCGUCUCCCUCCUAAGGAGAAGACUGCGGGUUCGAGUCCCGUACCGAACG [A14G A20C G67C]
[out] 0.534

[in] GET /values?readout=yeast fitness&item= GUUCCGUUGGCGUAAUGGUCACGCGUCUCCCUCCUAAGGAGAAGACUGCGGGUUCGAGUCCCGUACCGGACG [A20C G67C A69G]
[out] 0.539

[in] GET /values?readout=yeast fitness&item= GUUCCGUUGGCGUAAUGGUGACGCGACUCCCUCCUAAGGAGAAGACUGCGGGUUCGAGUCCCAUACGGAACG [A20G U26A G63A]
[out] 0.613

[in] GET /values?readout=yeast fitness&item= GUGCCGUUGGGGUAAUGGUAACGCGUCUCCCUCCUAAGGAGAAGACUGCGGGUUCGAGUCCCGUACGGAACG [U3G C11G]
[out] 0.556
